- procedure summary: in vitro
- condition parameters: dog, MDCK, pH 7.4
- Description: Apparent permeability in dog MDCKII-LE cells at pH 7.4
metric name: Papp (×10⁻⁶ cm/s)

Sample answers from the record:
# compound, Papp (×10⁻⁶ cm/s)
measured = [
    ("O=C(O)c1cccc(Cc2cc(Cl)ccc2OCc2ccc(Cl)cc2F)n1", 12),
    ("CCCCCN(CCCOC)C(=O)[C@@H](CCC(=O)O)NC(=O)c1ccc(Cl)c(Cl)c1 [DEXLOXIGLUMIDE]", 4.6),
    ("COc1ccc(Cl)cc1C(=O)NCCc1ccc(S(=O)(=O)NC(=O)NC2CCCCC2)cc1 [GLYBURIDE]", 14),
    ("Cc1ccc(S(=O)(=O)NCCc2ccc(Oc3ccc(F)c(F)c3)cc2)cc1C(=O)O", 7.3),
    ("CCCCC(=O)N(Cc1ccc(-c2ccccc2-c2nnn[nH]2)cc1)[C@H](C(=O)O)C(C)C", 0.32),
]

[1] CC[C@H](C)C(=O)O[C@H]1C[C@H](O)C=C2C=C[C@H](C)[C@H](CC[C@@H](O)C[C@@H](O)CC(=O)O)[C@H]21
[2] CCCCc1nc(C)c(CC(=S)N(C)C)c(=O)n1Cc1ccc(-c2ccccc2-c2nnn[nH]2)cc1
[3] CN(C)C(=O)CCS[C@H](SCCC(=O)O)c1cccc(/C=C/c2ccc3ccc(Cl)cc3n2)c1
[4] CCOc1cc(CC(=O)N[C@@H](CC(C)C)c2ccccc2N2CCCCC2)ccc1C(=O)O [REPAGLINIDE]
[5] CC(C)(C)OC(=O)N[C@H]1CCCCC/C=C\[C@@H]2C[C@@]2(C(=O)NS(=O)(=O)C2CC2)NC(=O)[C@@H]2C[C@@H](OC(=O)N3Cc4cccc(F)c4C3)CN2C1=O
Ask | Arrange by Papp, high to low. Form field (ranking): labels in requested order.
Reply | 4, 3, 5, 2, 1
(4: 19 ×10⁻⁶ cm/s, 3: 8.5 ×10⁻⁶ cm/s, 5: 2.5 ×10⁻⁶ cm/s, 2: 1.2 ×10⁻⁶ cm/s, 1: 0.46 ×10⁻⁶ cm/s)

[P] O=C(O)C[C@H](O)C[C@H](O)/C=C/c1c(C2CC2)nc2ccccc2c1-c1ccc(F)cc1
[Q] Cc1nn(-c2cnc(OCC(C)C)c(Cl)c2)c2ccc(C(=O)NS(C)(=O)=O)cc12
Ask | // select label with min value of measured Papp from [ P , Q ] Kindly give the label for the entry you pick.
Reply | Q

[1] COc1ccccc1Oc1c(NS(=O)(=O)c2ccc(C(C)(C)C)cc2)nc(-c2ncccn2)nc1OCCO
[2] O=S(=O)(Nc1nncs1)c1cc(Cl)c(Oc2ccc(C(F)(F)F)cc2-c2ccnnc2)cc1F
[3] Cc1ccc(NC(=O)C2(c3ccc4c(c3)OC(F)(F)O4)CC2)nc1-c1cccc(C(=O)O)c1
[4] CCCc1nc2c(C)cc(-c3nc4ccccc4n3C)cc2n1Cc1ccc(-c2ccccc2C(=O)O)cc1
Ask | Descending sort on Papp required. Write the labels, ordered according to the request.
Reply | 3, 4, 1, 2
(3: 25 ×10⁻⁶ cm/s, 4: 12 ×10⁻⁶ cm/s, 1: 7.4 ×10⁻⁶ cm/s, 2: 0.8 ×10⁻⁶ cm/s)

###

- procedure summary: in vitro
- condition parameters: cynomolgus monkey, plasma
- Description: Fraction unbound in cynomolgus monkey plasma
metric name: fraction unbound

# molecule, fraction unbound
records = [
    ("CCCCC(=O)N(Cc1ccc(-c2ccccc2-c2nnn[nH]2)cc1)[C@H](C(=O)O)C(C)C", 0.0145),
]

[a] CN(C)C(=O)CCS[C@H](SCCC(=O)O)c1cccc(/C=C/c2ccc3ccc(Cl)cc3n2)c1
[b] COc1ccccc1Oc1c(NS(=O)(=O)c2ccc(C(C)(C)C)cc2)nc(-c2ncccn2)nc1OCCO [BOSENTAN]
[c] CCC[C@H](c1ccc(C(=O)NCCC(=O)O)cc1)[C@H](c1ccc(Cl)cc1)c1c[nH]c2c(F)cc(C)cc12 [MK-3577]
[d] O=C(c1ccccc1)c1ccc2n1CCC2C(=O)O (stereo not drawn) [KETOROLAC]
[e] O=C(O)C[C@H](O)C[C@H](O)/C=C/c1c(C2CC2)nc2ccccc2c1-c1ccc(F)cc1 [PITAVASTATIN]
Ask | Arrange these 5 molecules in increasing order of fraction unbound. // rank by listing labels in the order requested
Reply | c, a, d, e, b
(c: 0.00023, a: 0.00116, d: 0.0148, e: 0.0263, b: 0.0422)
